Value source: ChEMBL document CHEMBL1770072

experimentNotes: Cytotoxicity against human resting lymphocytes after 3 days by MTT assay
Assay type: cell-based
studyConditions: Lymphocyte, 72 h
Cut-off 30 µM on IC50: below means criterion met, at or above means criterion not met.

is_below(IC50, 30 µM) for C[C@H]1[C@H](OC(=O)CCN2CCOCC2)O[C@@H]2O[C@@]3(C)CC[C@H]4[C@H](C)CC[C@@H]1[C@@]24OO3 ?
criterion not met

is_below(IC50, 30 µM) for C[C@H]1[C@@H](OC(=O)CCNCCCCCCNc2ccnc3cc(Cl)ccc23)O[C@@H]2O[C@@]3(C)CC[C@H]4[C@H](C)CC[C@@H]1[C@@]24OO3 ?
criterion met

is_below(IC50, 30 µM) for C[C@H]1[C@@H](OC(=O)CCNCCNc2ccnc3cc(Cl)ccc23)O[C@@H]2O[C@@]3(C)CC[C@H]4[C@H](C)CC[C@@H]1[C@@]24OO3 ?
criterion not met

is_below(IC50, 30 µM) for C[C@H]1[C@@H](OC(=O)CCNCCCNc2ccnc3cc(Cl)ccc23)O[C@@H]2O[C@@]3(C)CC[C@H]4[C@H](C)CC[C@@H]1[C@@]24OO3 ?
criterion met

is_below(IC50, 30 µM) for C[C@H]1[C@H](OC(=O)CCN2CCN(c3ccccc3)CC2)O[C@@H]2O[C@@]3(C)CC[C@H]4[C@H](C)CC[C@@H]1[C@@]24OO3 ?
criterion not met

is_below(IC50, 30 µM) for C[C@H]1[C@@H](OC(=O)CCNCCCCNc2ccnc3cc(Cl)ccc23)O[C@@H]2O[C@@]3(C)CC[C@H]4[C@H](C)CC[C@@H]1[C@@]24OO3 ?
criterion not met

is_below(IC50, 30 µM) for C[C@H]1[C@H](OC(=O)CCN2CCN(C)CC2)O[C@@H]2O[C@@]3(C)CC[C@H]4[C@H](C)CC[C@@H]1[C@@]24OO3 ?
criterion not met

---

Reported Ratio IC50 is given for each of the following compounds.
Test system: HeLa
experimentNotes: Tumor specificity, ratio of IC50 for human resting and phytohaemagglutinin-stimulated lymphocytes to IC50 for human HeLa cells
Answer field: number only, no words.

Illustrative cases are given below, each with its answer.
>  <chemicalString>
C=CC(=O)O[C@@H]1O[C@@H]2O[C@@]3(C)CC[C@H]4[C@H](C)CC[C@@H]([C@H]1C)[C@@]24OO3

>  <Ratio IC50>
4

$$$$
>  <chemicalString>
C=CC(=O)O[C@H]1O[C@@H]2O[C@@]3(C)CC[C@H]4[C@H](C)CC[C@@H]([C@H]1C)[C@@]24OO3

>  <Ratio IC50>
6.9

$$$$
>  <chemicalString>
C[C@H]1[C@H](OC(=O)CCN2CCNCC2)O[C@@H]2O[C@@]3(C)CC[C@H]4[C@H](C)CC[C@@H]1[C@@]24OO3

>  <Ratio IC50>
3.5

$$$$
>  <chemicalString>
CCN(CC)CCC(=O)O[C@@H]1O[C@@H]2O[C@@]3(C)CC[C@H]4[C@H](C)CC[C@@H]([C@H]1C)[C@@]24OO3

>  <Ratio IC50>
5

$$$$
>  <chemicalString>
C[C@H]1[C@H](OC(=O)CCN(C)Cc2ccccc2)O[C@@H]2O[C@@]3(C)CC[C@H]4[C@H](C)CC[C@@H]1[C@@]24OO3

>  <Ratio IC50>
5.6

$$$$
>  <chemicalString>
C[C@H]1[C@@H](OC(=O)CCNCCCCCCNc2ccnc3cc(Cl)ccc23)O[C@@H]2O[C@@]3(C)CC[C@H]4[C@H](C)CC[C@@H]1[C@@]24OO3

>  <Ratio IC50>
30.7

$$$$

The record that follows has no Ratio IC50 shown yet.
Which Ratio IC50 reading was recorded for the compound C[C@H]1[C@@H](OC(=O)CCN2CCN(c3ccnc4cc(Cl)ccc34)CC2)O[C@@H]2O[C@@]3(C)CC[C@H]4[C@H](C)CC[C@@H]1[C@@]24OO3 ?
4.5
